Entries and their CC50 at 216 h values follow.
- run description: Toxicity in human HepDE19 cells assessed as reduction in beta-actin level incubated for 9 days by qPCR analysis
- Type: cell-based
- condition context: time 9 day

[
  {
    "molecule": "CC(C)CCOC(=O)C[C@H](NP(=O)(CO[C@H]1CO[C@@H](n2cnc3c(N)ncnc32)C1)Oc1ccccc1)C(=O)OCCC(C)C (mixture of isomers)",
    "unit text": "nM",
    "CC50 at 216 h": 230
  },
  {
    "molecule": "CC(C)OC(=O)[C@H](C)N[P@](=O)(CO[C@H](C)Cn1cnc2c(N)ncnc21)Oc1ccccc1 [TENOFOVIR ALAFENAMIDE]",
    "unit text": "nM",
    "CC50 at 216 h": 500
  }
]
